- Substrate: PET
- Test Description: Proxy for plastic degradation [HPLC-UV] (mmol)
- Cond: pH 8; 60 °C
Recorded Endpoint: Proxy for plastic degradation
The reply should be a number, written without any unit.

Protein	Proxy for plastic degradation
unnamed (protein) CGSDDDSAPGSPAGNEPFYAPDELGPFAVGRSTFTIVDADRGDRELPVDVWYPVDPEEATGAPSLYQVSILVWIFPLVFTTPSEVALDSPPVSEARRFPLIVFSHGSGGLRYQSFFLTEILASHGFVVVAPSHVGNTLLDEINGTFAPLTDMMVARPLDVSYLITRMLEKNEDAADPLYGTIDADRIGVCGHSFGGFTSLAMAAGFGADPPPDLDPEIPEDLEPVPPDPRVDAIVPIAPASSWFGDSELAGIDVPTLIIGGTLDTTTPIATENVRPYEMIPAPVFRADLDGAVHFSFSNSCDLIQGMREKGIPQALIDALLGAEFTAPCNPPSLDVEEAHRITNLYTVSLFETFLEDDSRYEKYLTEAYAEASEPNVTFYANPD	0

Determine its reported Proxy for plastic degradation: unnamed (protein) QSYEMGHRSEIYIDPSRGDRAIPTEIYYPSLTAGDDVPVADPPTGGFPVVAFAHGRMMPWDDYENIWGALAPQGFVVACPTTETGFMPNRTNFSLDLIYVISRIRLENSSATSPFYGKIGNASAVIGHSFGGVATFMAAIESDSITAIVTFASGQIDSVELAGISEPALIFAGTDDSLTPAATFQIPYYNNLGSSCKTLVNIIGGTHCHFAESSYYCDIGEAGFPPPGITRERQHELTNQFLIPWLDFMLNTDPVASDSFQTLLTTSGDILYLQDCDIMGVSRDDPTDLPGIIDLLAYPNPFNSAVRIGVERGEWRVENREIFDITGRMVAEIPAQSVIPDPDRESRGVVEGLDSRFHG
0

Where do these numbers come from? They come from the PETadex activity labels (doi:10.1093/ismejo/wraf068).
